- protocol: soluble on expression in E. coli; label from the status in PepcDB or PDB records
metric.name: soluble on expression in E. coli

INSERT INTO measurements (residue_string, metric_name, reading) VALUES
  ('MAHHHHHHMYGGNFSIPEFILKHEKYEKERLKIKRNKYLKRNIYKDNYSFIYFIFLHNINEHVEITTNNFDLLKGQLEELKKNTNNHIKGIILKNVIKSNNNNYSYFSKLYIPITNIYTCMPDNICSREKNKNPESKPFCDLIVSGYKNQMMNKIYEKFKKLGNQYV', 'soluble on expression in E. coli', 'not soluble'),
  ('MRFFVSGMPGVGKTTLAKRIADEVRREGFKVGGIITEEIREGGKRTGFRVIALDTGEIGRLAYVGYGYPRLGKYVIDVEGFERVAIPALSRALRGADLIVIDEIGPMEFKSNEFLKALGLVLKSEKHLLATVHRRLVDRYRPLGEYYWLTPENRNAVFSEILGRIKGLLKEKLEHHHHHH', 'soluble on expression in E. coli', 'soluble'),
  ('GSMDQNTTEPVAATETLAEVPEHVLRGLPEEVRLFPSAVDKTRIGVWATKPILKGKKFGPFVGDKKKRSQVKNNVYMWEVYYPNLGWMCIDATDPEKGNWLRYVNWACSGEEQNLFPLEINRAIYYKTLKPIAPGEELLVWYDGEDNPEIAAAIEEERASARS', 'soluble on expression in E. coli', 'soluble'),
  ('MAHHHHHHMSGVNAWGRMHTPAKQSQFTLDMFEEWKAKQNEDIAQRGADRDPAVEEEHNRYMLRQNLNAYVCYKELDRYTTCLEDKRLIRRRDDEDGARGGGTGVSLASSFEINTRNKVNEKLCRATHNTYVSCMSSQKNQEVVLQSASLEPHCTERRAKLFRCLRENQVSEAQTNTPQCTDTYRSLLRCGLNHLWNHYWREITKFSDTDEFHLYELSRDDNKKQAYLRALTTSEAQRQSHLREARDTMLGYYLDPKAAQKGDS', 'soluble on expression in E. coli', 'not soluble'),
  ('MAHHHHHHMQPFQFVPQVDNKVNVVSMQPFQMYVPNHNMMVPQACPENIQQYHHQPIFFEPLPPIYVKNQLLPSPILVQMPTTVVVQNESQPAMVLSQPPSNIVVKNNPPTSVFVKQSNPNVVVKNEAPPNYVQSVEACQEGVVADMSRPMMTTLNKNIL', 'soluble on expression in E. coli', 'not soluble'),
  ('GGTKTAAEAAAPAVHPVSGLQIVPVTVTGTSGRHVFRSELARTSAEQAKGLMFRTELGDEEGMIFLRNPPDMATFWMRNTVIPLDIIFVGLDRRVMNIAANAVPYDETPLPAAGPTLAVLEINGGLAARLGIKPGDKVEW', 'soluble on expression in E. coli', 'soluble'),
  ('MAQILPIRFQEHLQLQNLGINPANIGFSTLTMESDKFICIREKVGEQAQVVIIDMNDPSNPIRRPISADSAIMNPASKVIALKAGKTLQIFNIEMKSKMKAHTMTDDVTFWKWISLNTVALVTDNAVYHWSMEGESQPVKMFDRHSSLAGCQIINYRTDAKQKWLLLTGISAQQNRVVGAMQLYSVDRKVSQPIEGHAASFAQFKMEGNAEESTLFCFAVRGQAGGKLHIIEVGTPPTGNQPFPKKAVDVFFPPEAQNDFPVAMQISEKHDVVFLITKYGYIHLYDLETGTCIYMNRISGETIFVTAPHEATAGIIGVNRKGQVLSVCVEEENIIPYITNVLQNPDLALRMAVRNNLAGAEEL', 'soluble on expression in E. coli', 'soluble');

# soluble on expression in E. coli of GSPGIHMLGGSSDAGLATAAARGQVETVRQLLEAGADPNALNRFGRRPIQVMMMGSAQVAELLLLHGAEPNCADPATLTRPVHDAAREGFLDTLVVLHRAGARLDVCDAWGRLPVDLAEEQGHRDIARYLHAATGD = soluble

meta.source: the DeepSol protein solubility set
